- Procedure Details: Pharmacokinetics after single iv or oral S2227 in rats
- Type: in vivo, Sprague-Dawley rats
- Condition Context: male, Sprague-Dawley, rat, plasma, po, 30 mg/kg
Property Measured: AUC(0-t)
Please provide the amount together with its unit, number first.

Prompt: Entry under review: `c1csc(CNc2cc[nH]n2)c1` . Reported AUC(0-t)?
Response: 614 ng·h/mL

###

- Procedure Details: Pharmacokinetics after single iv or oral S2227 in rats
- Assay type: in vivo, Sprague-Dawley rats
- Condition Context: female, Sprague-Dawley, rat, plasma, iv, 1 mg/kg
Property Measured: half-life (min)
One number for each entry, in min.

Prompt: Entry under review: c1csc(CNc2cc[nH]n2)c1 [M179, N-(2-thienylmethyl)-1H-pyrazol-3-amine] . Reported half-life?
Response: 49.2

###

- Procedure Details: Pharmacokinetics after single iv or oral S2227 in rats
- Assay type: in vivo, Sprague-Dawley rats
- Condition Context: male, Sprague-Dawley, rat, plasma, iv, 1 mg/kg
Property Measured: AUC(0-t) (ng·h/mL)
Numbers only, in ng·h/mL.

Prompt: Entry under review: `c1csc(CNc2cc[nH]n2)c1` . Reported AUC(0-t)?
Response: 8.78

###

- Procedure Details: Pharmacokinetics after single iv or oral S2227 in rats
- Format: in vivo, Sprague-Dawley rats
- Condition Context: female, Sprague-Dawley, rat, plasma, po, 30 mg/kg
Property Measured: half-life (h)
Answers are plain numbers, in h.

Prompt: Entry under review: c1csc(CNc2cc[nH]n2)c1 [M179, N-(2-thienylmethyl)-1H-pyrazol-3-amine] . Reported half-life?
Response: 1.06

###

- Procedure Details: Pharmacokinetics after single iv or oral S2227 in rats
- Format: in vivo, Sprague-Dawley rats
- Condition Context: male, Sprague-Dawley, rat, plasma, po, 10 mg/kg
Property Measured: Cmax (ng/mL)
One number for each entry, in ng/mL.

Prompt: Entry under review: `c1csc(CNc2cc[nH]n2)c1` . Reported Cmax?
Response: 189

###

- Procedure Details: Pharmacokinetics after single iv or oral S2227 in rats
- Assay type: in vivo, Sprague-Dawley rats
- Condition Context: male, Sprague-Dawley, rat, plasma, po, 10 mg/kg
Property Measured: Tmax
Please provide the amount together with its unit, number first.

Prompt: Entry under review: c1csc(CNc2cc[nH]n2)c1 [M179, N-(2-thienylmethyl)-1H-pyrazol-3-amine] . Reported Tmax?
Response: 30 min

###

- Procedure Details: Pharmacokinetics after single iv or oral S2227 in rats
- Format: in vivo, Sprague-Dawley rats
- Condition Context: female, Sprague-Dawley, rat, plasma, iv, 1 mg/kg
Property Measured: Tmax

Prompt: Entry under review: `c1csc(CNc2cc[nH]n2)c1` . Reported Tmax?
Response: 7.8 min

###

- Procedure Details: Pharmacokinetics of S2227 and M179 hydrochloride in mice
- Assay type: in vivo, male CD-1 mice
- Condition Context: male, CD-1, mouse, plasma, po, 30 mg/kg
Property Measured: AUC(0-t) (ng·h/mL)
Answers are plain numbers, in ng·h/mL.

Prompt: Entry under review: c1csc(CNc2cc[nH]n2)c1 [M179, N-(2-thienylmethyl)-1H-pyrazol-3-amine] . Reported AUC(0-t)?
Response: 27.6

###

- Procedure Details: Pharmacokinetics after single iv or oral S2227 in rats
- Type: in vivo, Sprague-Dawley rats
- Condition Context: male, Sprague-Dawley, rat, plasma, po, 30 mg/kg
Property Measured: Tmax
Please provide the amount together with its unit, number first.

Prompt: Entry under review: `c1csc(CNc2cc[nH]n2)c1` . Reported Tmax?
Response: 45 min

Cited source for all entries: paper PMC5598389
